target: EGFR del746-750 T790M (Homo sapiens, UniProt P00533, DEL746-750/T790M); experiment: EGFR del746-750 T790M biochemical assay (Caliper mobility shift); conditions: 5 μM ATP, 30 min, room temperature; apparent Ki (Morrison) converted by Cheng-Prusoff, Km of ATP 2.1 μM; read-out: EGFR(T790M/d746-750) Ki
Sequence (P00533 with tags, fused parts or gaps DEL746-750/T790M limits assumed): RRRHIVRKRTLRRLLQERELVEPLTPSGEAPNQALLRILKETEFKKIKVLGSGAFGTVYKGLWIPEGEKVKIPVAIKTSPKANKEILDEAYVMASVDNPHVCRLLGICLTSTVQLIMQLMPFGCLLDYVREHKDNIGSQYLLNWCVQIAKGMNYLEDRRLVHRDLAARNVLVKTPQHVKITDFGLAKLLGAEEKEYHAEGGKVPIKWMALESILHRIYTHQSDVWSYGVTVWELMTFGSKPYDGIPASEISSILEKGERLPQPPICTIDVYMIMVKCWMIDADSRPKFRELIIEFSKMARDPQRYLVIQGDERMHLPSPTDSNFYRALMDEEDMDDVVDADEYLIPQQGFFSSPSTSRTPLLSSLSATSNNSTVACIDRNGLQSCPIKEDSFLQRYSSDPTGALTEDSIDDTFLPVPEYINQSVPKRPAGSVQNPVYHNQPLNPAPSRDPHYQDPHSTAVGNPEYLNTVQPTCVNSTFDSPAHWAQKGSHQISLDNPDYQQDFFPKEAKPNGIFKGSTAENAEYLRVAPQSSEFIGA
pKi: −log10 of the molar value.
Readings of pKi for the listed compounds

compound: CO[C@H]1CCN(c2nccc(Nc3cc4c(cn3)nc(CO)n4C(C)C)n2)C[C@H]1C(F)(F)F (racemic) [Example 628]
pKi: 5.92
//
compound: CO[C@@H]1CCN(c2nccc(Nc3cc4c(cn3)nc(CO)n4C(C)C)n2)C[C@H]1C(F)(F)F (racemic) [Example 629]
pKi: 5.53
//
compound: CC(C)n1cnc2cnc(Nc3ccnc(N4CCc5[nH]ncc5C4)n3)cc21 [Example 12]
pKi: 7.72
//
compound: C[C@H](n1c([C@@H](C)O)nc2cnc(Nc3ccnc(N4CCC(S(C)(=O)=O)CC4)n3)cc21)C(F)(F)F [Example 662]
pKi: 7.16
//
compound: CO[C@H]1[C@@H]2CC[C@H]1CN(c1nccc(Nc3cc4c(cn3)nc(CO)n4C(C)C)n1)C2 [Example 273]
pKi: 7.63
//
compound: COC1CCN(c2nccc(Nc3cc4c(cn3)c(C(=O)NC(C)C)cn4C(C)C)n2)CC1 [Example 120]
pKi: 7.99
//
compound: CC(C)n1c(CO)nc2cnc(Nc3ccnc(-c4cnc(N)s4)n3)cc21 [Example 615]
pKi: 8.47

These data points were gathered from patent US9890152B2.
